System: basil 'Genovese'
Assay: Visual injury of basil after insecticide, fungicide, PGRs, safeners (Example 4)
Details: 7 DA-A, rates g ai/ha: chlropyrifos 1120, chlorothalonil 2630, paclobutrazol 3.23, mepiquat-chloride 12.3, Isoxadifen 8, Napthalic anhydride 264, + NIS 0.25 % v/v

| compound | Phytotoxicity General / % |
| --- | --- |
| CC(C)(C)[C@@H](O)[C@@H](Cc1ccc(Cl)cc1)n1cncn1 (racemic) | 3 |
| CCOP(=S)(OCC)Oc1nc(Cl)c(Cl)cc1Cl | 2 |
| CCOC(=O)C1=NOC(c2ccccc2)(c2ccccc2)C1 | 3 |
| N#Cc1c(Cl)c(Cl)c(Cl)c(C#N)c1Cl | 5 |
| O=C1OC(=O)c2cccc3cccc1c23 [napthalic anhydride] | 5 |
| C[N+]1(C)CCCCC1 [mepiquat-chloride] | 2 |
